tested on: S. aureus ATCC 25923; type: cell-based, Staphylococcus aureus; settings: ATCC 25923, 18 h
Ends that are not written are not given here.
The following sequences are listed with their measured MIC values.

CONSTRUCT_SEQUENCE	UNITS_LABEL	MIC
WRIRRRWPRLPRPRWRPRFPPPFPIPR [Peptide B7-T11]	µM	16
WRIRRRWPRLPRPRWRPLPFPR [Peptide B7-B6]	µM	8
WRIRRRWPRLPRPRWRPLPFPRPGPRP [Peptide B7-B11]	µM	16
WRIRRRWPRLPRPRWRPRFPPP [Peptide B7-T6]	µM	16

---

tested on: A. baumannii ATCC 19606; format: cell-based, Acinetobacter baumannii; conditions: ATCC 19606, 18 h
Ends that are not written are not given here.
The following sequences are listed with their measured MIC values.
MEASURED_QUANTITY: MIC (µM)

CONSTRUCT_SEQUENCE	UNITS_LABEL	TEST_RESULT
WRIRRRWPRLPRPRWRPRFPPP [Peptide B7-T6]	µM	1
WRIRRRWPRLPRPRWRPRFPPPFPIPR [Peptide B7-T11]	µM	1
WRIRRRWPRLPRPRWRPWFPPR [Peptide B7-L6]	µM	2
WRIRRRWPRLPRPRWRPLPFPR [Peptide B7-B6]	µM	1
WRIRRRWPRLPRPRWRPLPFPRPGPRP [Peptide B7-B11]	µM	1
